- Assayed system: hTRPV3 (Homo sapiens (Human), UniProt Q8NET8)
- Sequence (Q8NET8 whole entry): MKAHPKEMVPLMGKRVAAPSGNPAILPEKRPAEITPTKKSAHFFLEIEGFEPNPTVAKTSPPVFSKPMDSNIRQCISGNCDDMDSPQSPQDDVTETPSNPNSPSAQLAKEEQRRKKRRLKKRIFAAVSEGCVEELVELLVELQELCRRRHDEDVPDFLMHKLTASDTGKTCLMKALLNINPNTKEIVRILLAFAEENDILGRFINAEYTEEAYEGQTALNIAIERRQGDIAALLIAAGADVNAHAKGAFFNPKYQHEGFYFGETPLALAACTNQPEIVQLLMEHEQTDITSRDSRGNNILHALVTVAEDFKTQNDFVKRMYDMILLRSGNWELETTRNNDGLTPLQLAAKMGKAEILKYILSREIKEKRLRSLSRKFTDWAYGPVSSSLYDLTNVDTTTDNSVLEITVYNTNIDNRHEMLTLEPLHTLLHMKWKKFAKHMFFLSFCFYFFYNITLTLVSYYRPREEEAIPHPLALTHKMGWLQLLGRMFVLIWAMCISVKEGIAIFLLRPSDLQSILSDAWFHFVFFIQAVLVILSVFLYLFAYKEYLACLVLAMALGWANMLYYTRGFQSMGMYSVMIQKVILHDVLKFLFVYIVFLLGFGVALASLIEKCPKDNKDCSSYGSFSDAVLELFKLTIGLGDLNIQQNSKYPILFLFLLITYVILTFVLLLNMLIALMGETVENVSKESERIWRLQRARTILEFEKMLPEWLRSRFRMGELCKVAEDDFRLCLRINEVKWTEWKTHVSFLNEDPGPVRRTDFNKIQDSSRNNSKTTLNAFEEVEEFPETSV
- Assay protocol: Whole-cell patch clamp, hTRPV3 Phase 1 / Phase 2 currents
- Type: cell-based
- Conditions used: Phase 1 current; read-out: hTRPV3 (nM) (Phase 1)
Measured attribute: IC50 (nM)
Write the answer as a number in nM, unit excluded.

Value wanted: IC50 (hTRPV3 (Homo sapiens (Human), UniProt Q8NET8)) of entry N#Cc1ccccc1-c1ccc(N2CC[C@H](Oc3ncccc3F)C2)c(CO)n1 [Compound 1-217] 3900

Please do the same for O=C(c1ccc(N2CC[C@H](Oc3ncccc3F)C2)c(CO)c1)c1ccccc1Cl [Compound 1-265] as well. 1780

---

Exercise: state measured IC50 for each of the compounds provided.
- Assayed system: hTRPV3 (Homo sapiens (Human), UniProt Q8NET8)
- Assay protocol: Whole-cell patch clamp, hTRPV3 Phase 1 / Phase 2 currents
- Assay type: cell-based
- Conditions used: Phase 1 current, inward, whole-cell patch clamp; read-out: hTRPV3 Patch P1 Inwd
Counter-ions that a name gives are not always drawn.

So what's the measured IC50 for this one? `COc1ccccc1Oc1ccc(N2CC[C@H](Oc3ccc(C)cn3)C2)c(CO)n1` > 1 µM

Please do the same for `NC(=O)c1cc(Cl)ccc1N1CC[C@H](Oc2ccc(C(F)(F)F)cn2)C1` as well. 0.1 to 1 µM

Please do the same for `O=C(c1cccc(Cl)c1)c1ccc(N2CC[C@H](Oc3ncccc3Cl)C2)c(CCO)c1` as well. 0.1 to 1 µM

Please do the same for `O=C(c1ccc(Cl)cc1)c1ccc(N2CC[C@H](Oc3ncccc3Cl)C2)c(CCO)c1` as well. 0.1 to 1 µM

Please do the same for `FC(F)(F)c1ccc(O[C@H]2CCN(c3ccccc3-c3ccccc3)C2)nc1` as well. > 1 µM

Please do the same for CC(C)c1ccccc1-c1ccc(C2CCN(C(=O)c3ccc(F)cn3)C2)c(CO)c1 (centres unmarked) as well. < 0.01 µM

Please do the same for N#Cc1ccccc1N1CCC(Oc2ccc(C(F)(F)F)cn2)C1 (centres unmarked) as well. > 1 µM

Please do the same for `CCc1c(Cl)ncnc1Oc1ccc(N2CC[C@H](Oc3ncccc3Cl)C2)c(CO)c1` as well. 0.1 to 1 µM

Please do the same for `NC(=O)c1cc(C(=O)c2ccccc2)ccc1N1CC[C@@H](Oc2ccc(C(F)(F)F)cn2)C1` as well. > 1 µM

Please do the same for Cc1cncc(C(=O)N2CCC(c3ccc(-c4ccccc4C4CC4)cc3CO)C2)n1 (centres unmarked) as well. 0.01 to 0.1 µM

Please do the same for NCc1cc(-c2ccccc2Cl)ccc1N1CC[C@H](Oc2ncccc2Cl)C1 [Compound 1-122, hydrochloride] as well. > 1 µM

Please do the same for O=C(c1cnc(Cl)cn1)N1CCC(c2ccc(-c3ccccc3C3CC3)cc2CO)C1 (centres unmarked) as well. 0.01 to 0.1 µM

Please do the same for COC(C)c1ccccc1Oc1ccc(N2CC[C@H](Oc3ccc(F)cn3)C2)c(CCO)c1 (some centres unmarked) as well. 0.1 to 1 µM

Please do the same for Cc1cccnc1C(=O)N1CCC(c2ccc(Oc3ccccc3C(C)C)cc2CO)C1 (centres unmarked) as well. 0.1 to 1 µM

Please do the same for `Cc1cccnc1O[C@H]1CCN(c2ccc(-c3ccccc3Cl)cc2CCO)C1` as well. 0.1 to 1 µM

Please do the same for `NC(=O)c1cc(C(F)(F)F)ccc1N1CC[C@@H](Oc2ccc(C(F)(F)F)cn2)C1` as well. 0.1 to 1 µM

Please do the same for `OCc1ccc(-c2ccccc2Cl)cc1N1CC[C@H](Oc2ncccc2Cl)C1` as well. 0.1 to 1 µM

---

- Assay protocol: Aqueous solubility assay in Normal Ringer Solution
- Conditions used: Normal Ringer Solution, saline or isotonic, kinetic from dmso stock
Exercise: state measured solubility at 40 min for each of the compounds provided.

So what's the measured solubility at 40 min for this one? COc1cnc(C(=O)N2CCC(c3ccc(-c4ccccc4C4CC4)cc3CO)C2)cn1 (stereo not shown) 9.25 µM

Please do the same for `NC(=O)c1ccccc1-c1ccc(N2CC[C@H](Oc3ccc(C(F)(F)F)cn3)C2)c(CO)c1` as well. > 16.6 µM

Please do the same for `NC(=O)c1cc(-c2cccnc2)ccc1N1CC[C@H](Oc2ccc(C(F)(F)F)cn2)C1` as well. > 3.3 µM

Please do the same for `OCc1cc(-c2ccccc2)ncc1N1CC[C@H](Oc2ccc(C(F)(F)F)cn2)C1` as well. ~2 µM

Please do the same for `N#Cc1ccc(O[C@H]2CCN(c3ccc(-c4ccccc4)cc3CO)C2)nc1` as well. 1.4 µM

Please do the same for `Cc1ccc(O[C@H]2CCN(c3ccc(-c4ccccc4)cc3CO)C2)nc1` as well. ~0.97 µM

Please do the same for `Cc1cccc(C(=O)c2ccc(N3CC[C@H](Oc4ncccc4Cl)C3)c(CO)c2)c1` as well. ~0.67 µM

Please do the same for `OCc1cc(-c2ccccc2)ccc1N1CC[C@H](Oc2ccc(C(F)(F)F)cn2)C1` as well. 0.37 µM

Please do the same for `Cc1ccc(O[C@H]2CCN(c3ccc(Oc4ccccc4C)nc3CO)C2)nc1` as well. ~1.4 µM

Please do the same for `COc1ccccc1Oc1ccc(N2CC[C@H](Oc3ncccc3Cl)C2)c(CO)c1` as well. ~2.9 µM

Please do the same for `COCc1ccccc1-c1ccc(N2CC[C@H](Oc3ccc(C(F)(F)F)cn3)C2)c(CO)c1` as well. ~0.4 µM

Please do the same for `OCCOc1cc(-c2ccccc2Cl)ccc1N1CC[C@H](Oc2ccc(C(F)(F)F)cn2)C1` as well. 0.56 µM

Please do the same for CC(C)c1ccccc1-c1ccc(C2CCN(C(=O)c3ccc(Cl)cn3)C2)c(CO)c1 (stereo not shown) as well. ~3.7 µM

Please do the same for `Cc1ccccc1C(=O)c1ccc(N2CC[C@H](Oc3ncccc3F)C2)c(CO)c1` as well. ~7.34 µM

Please do the same for `OCc1cc(Oc2ccccc2)ccc1N1CC[C@H](Nc2ncccc2Cl)C1` as well. > 1.6 µM

Please do the same for `Cc1ccccc1-c1ccc(N2CC[C@H](Oc3ccc(C(F)(F)F)cn3)C2)c(CO)n1` as well. ~0.8 µM

---

Exercise: state measured IC50 for each of the molecules provided.
- Assayed system: UniProtKB Q8NET8
- Assay protocol: Whole-cell patch clamp, hTRPV3 Phase 1 / Phase 2 currents
- Assay type: cell-based
- Conditions used: Phase 1 current, inward, whole-cell patch clamp; read-out: hTRPV3 Patch P1 Inwd

So what's the measured IC50 for this one? OCc1cc(C(O)c2ccccc2Cl)ccc1N1CC[C@H](Oc2ncccc2F)C1 (some centres unmarked) 10 to 100 nM

Please do the same for `OCc1cc(Oc2ccc(Cl)cc2)ccc1N1CC[C@H](Oc2ccccn2)C1` as well. 100 to 1000 nM

Please do the same for CCc1ccccc1C(=O)c1ccc(N2CC[C@H](Oc3ncccc3Cl)C2)c(CO)c1 [Compound 1-251] as well. 10 to 100 nM

Please do the same for CCc1c(C)cccc1-c1ccc(C2CCN(C(=O)c3ccc(F)cn3)C2)c(CO)c1 (centres unmarked) as well. 10 to 100 nM

Please do the same for `CC(C)c1ccccc1Oc1ccc(N2CC[C@H](Oc3ccccn3)C2)c(CO)c1` as well. < 10 nM

Please do the same for O=C(c1cc[nH]n1)N1CCC(c2ccc(-c3ccccc3C3CC3)cc2CO)C1 (centres unmarked) as well. 10 to 100 nM

Please do the same for O=C1C(Oc2ccc3ccccc3n2)CCN1c1cccc2ccccc12 (centres unmarked) as well. > 1000 nM

Please do the same for `OCc1cc(Oc2cccc(OC(F)(F)F)c2)ccc1N1CC[C@H](Oc2ccccn2)C1` as well. 10 to 100 nM

---

Exercise: state measured IC50 for each of the molecules provided.
- Assayed system: hTRPV3 (Homo sapiens (Human))
- Assay protocol: Whole-cell patch clamp, hTRPV3 Phase 1 / Phase 2 currents
- Format: cell-based
- Conditions used: hTRPV3 Patch P1 Inwd (nM)
Counter-ions that a name gives are not always drawn.

Value wanted: IC50 (hTRPV3 (Homo sapiens (Human))) of entry OCc1nc(Oc2ccccc2)ccc1N1CC[C@H](Oc2ccc(C(F)(F)F)cn2)C1 [Compound 1-199] > 1000 nM

Please do the same for NC(=O)c1cc(C2=NCCN2)ccc1N1CC[C@@H](Oc2ccc(C(F)(F)F)cn2)C1 [Compound 1-100] as well. > 1000 nM

Please do the same for CC(C)c1ccccc1Oc1ccc(N2CC[C@H](Oc3ncccc3Cl)C2)c(CCO)c1 [Compound 1-327] as well. 10 to 100 nM

Please do the same for Cc1ccc(O[C@H]2CCN(c3ccc(-c4ccccc4CN(C)C)cc3CO)C2)nc1 [Compound 1-219] as well. > 1000 nM

Please do the same for NC(=O)c1cc(C(=O)c2ccccc2)ccc1N1CC[C@H](Oc2ncccc2Cl)C1 [Compound 1-136] as well. > 1000 nM

Please do the same for NC(=O)c1cc(Cc2ccccc2)ccc1N1CC[C@H](Oc2ccc(C(F)(F)F)cn2)C1 [Compound 1-140] as well. 100 to 1000 nM

Please do the same for NC(=O)c1cc(Oc2ccccc2)ccc1N1CC[C@H](Oc2ccc(C(F)(F)F)cn2)C1 [Compound 1-124] as well. 100 to 1000 nM

Please do the same for NCc1cc(-c2ccccc2)ccc1N1CC[C@@H](Oc2ccc(C(F)(F)F)cn2)C1 [Compound 1-109, hydrochloride] as well. > 1000 nM

Please do the same for COc1ccccc1Oc1ccc(N2CC[C@H](Oc3ncccc3Cl)C2)c(CO)c1 [Compound 1-221] as well. 100 to 1000 nM
